Origin of measurements: patent US5098613A

Molecular target: leukotriene B4 specific receptor on the membrane of human neutrophils (Homo sapiens, UniProt Q15722)
Construct: incubating neutrophils (1×10^7 cells) with 0.1-0.2 nM ^3 H-LTB4; endogenous in cells; host or cells: human peripheral blood neutrophils (buffy coats of two blood donors)
Sequence (Q15722 whole entry): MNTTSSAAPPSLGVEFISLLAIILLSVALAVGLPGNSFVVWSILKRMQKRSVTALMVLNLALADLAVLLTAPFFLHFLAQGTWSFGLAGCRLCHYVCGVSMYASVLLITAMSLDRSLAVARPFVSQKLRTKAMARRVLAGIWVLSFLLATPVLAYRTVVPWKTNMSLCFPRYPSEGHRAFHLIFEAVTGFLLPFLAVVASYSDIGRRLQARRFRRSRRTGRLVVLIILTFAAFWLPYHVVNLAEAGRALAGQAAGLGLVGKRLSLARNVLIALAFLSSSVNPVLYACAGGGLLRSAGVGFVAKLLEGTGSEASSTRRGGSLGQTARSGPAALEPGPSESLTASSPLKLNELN
Assay: Inhibition of Binding of ^3 H-LTB4 to Peripheral Human Neutrophils
Conditions: drug concentration 10^-5 M; 4° C., 10 minutes; read-out: LTB4 Binding Inhibition
test-readout: inhibition at 10 µM (%)

A = C=CCc1cc(C(=O)CCCCCCCCC)c(O)cc1OCCCCC#N
B = C=CCc1cc(C(C)=O)c(O)cc1OC [Example 42, 2-Hydroxy-4-methoxy-5-allylacetophenone]
Exercise: compare A and B ; which one has the greater inhibition at 10 µM? Returns: label corresponding to the selected item.
A
(A: 10%, B: 6%)
